- System: HT29 colon cancer cells
- Experiment: Cytotoxicity against HT29 colon cancer cells
- Type: cell-based, human
- Study Conditions: Homo sapiens, HT-29, 48 h, 48 h
- Description: The culture medium was supplemented with 10% heat-inactivated fetal bovine serum (FBS) and 1% penicillin–streptomycin antibiotics. The time of the bioassays was 48 h. The determinations were undertaken in triplicate on three different occasions.
Endpoint Label: IC50 (µM)
# number only, unit µM dropped from output

Here are 2 compounds together with their reported answers.
INSERT INTO results (smiles_input, test_system, endpoint_label, value_measured) VALUES
  ('COc1ccc(/C=C2\CNC/C(=C\c3ccc(O)c(CN4CCCC4)c3)C2=O)cc1OC', 'HT29 colon cancer cells', 'IC50', 1.57),
  ('COc1ccc(/C=C2\CNC/C(=C\c3ccc(O)c(CN4CCN(C)CC4)c3)C2=O)cc1', 'HT29 colon cancer cells', 'IC50', 0.76);

Would you kindly look at the next entry?
[in] Consider the compound shown here: COc1ccc(/C=C2\CNC/C(=C\c3ccc(O)c(CN4CCOCC4)c3)C2=O)cc1OC What is its recorded IC50?
[out] 3.75

----------
- Experiment: MTT cytotoxicity against human gingival fibroblast (HGF)
- Type: cell-based
- Study Conditions: human, human gingival fibroblasts (HGF), non-malignant oral cells
- Description: The method for evaluating 2a–f and 3a–e against human oral squamous cell carcinoma (OSCC) cell lines (Ca9-22, HSC-2, HSC-3, HSC-4) and human non-malignant oral cells [human gingival fibroblast (HGF), human periodontal ligament fibroblast (HPLF), and human pulp cell (HPC)] have been reported previously, except the length of time of this bioassay was extended from 24 h to 48 h. […]
// values below are reported CC50 at 48 h
# number only, unit µM dropped from output

INSERT INTO assay_data (smiles_input, value_measured) VALUES
  ('COc1ccc(/C=C2\CNC/C(=C\c3ccc(O)c(CN4CCCC4)c3)C2=O)cc1OC', 68.6);

[in] Consider the compound shown here: COc1ccc(/C=C2\CNC/C(=C\c3ccc(O)c(CN4CCN(C)CC4)c3)C2=O)cc1 What is its recorded CC50 at 48 h?
[out] 8.8

[in] Proceed to Cc1ccc(/C=C2\CNC/C(=C\c3ccc(O)c(CN4CCN(C)CC4)c3)C2=O)cc1
[out] 14.6

[in] Proceed to CN1CCN(Cc2cc(/C=C3\CNC/C(=C\c4ccccc4)C3=O)ccc2O)CC1
[out] 10.2

[in] Proceed to CCN(CC)Cc1cc(C=C2CNCC(=Cc3ccc(OC)c(OC)c3)C2=O)ccc1O.Cl.Cl
[out] 13.3

----------
- System: Ca9-22, HSC-2, HSC-3, and HSC-4 squamous cell carcinoma cell lines
- Experiment: Average over Ca9-22, HSC-2, HSC-3 and HSC-4 OSCC cell lines
- Format: cell-based, human
- Study Conditions: Homo sapiens, average of four OSCC cell lines; read-out: Average CC50
// values below are reported CC50

Here are 4 molecules together with their reported answers.
INSERT INTO results (molecule, endpoint_label, value_measured) VALUES
  ('CN1CCN(Cc2cc(/C=C3\CNC/C(=C\c4ccc([N+](=O)[O-])cc4)C3=O)ccc2O)CC1', 'CC50', '< 1000 nM'),
  ('O=c1[nH]cc(F)c(=O)[nH]1 [Compound 5-FU, 5-fluorouracil, reference compound]', 'CC50', '> 240000 nM'),
  ('Cc1ccc(/C=C2\CNC/C(=C\c3ccc(O)c(CN4CCN(C)CC4)c3)C2=O)cc1', 'CC50', '1930 nM'),
  ('COc1ccc(/C=C2\CNC/C(=C\c3ccc(O)c(CN4CCCC4)c3)C2=O)cc1OC', 'CC50', '12000 nM');

[in] Consider the molecule shown here: CN1CCN(Cc2cc(/C=C3\CNC/C(=C\c4ccccc4)C3=O)ccc2O)CC1 What is its recorded CC50?
[out] < 1000 nM

[in] Proceed to COc1ccc(/C=C2\CNC/C(=C\c3ccc(O)c(CN4CCCCC4)c3)C2=O)cc1OC
[out] < 1000 nM

Data origin, for the record: paper PMC9572513
